Entry source: ChEMBL document CHEMBL1201862

Test system: MDA-MB-435
Assay: NCI tumour cell line growth inhibition, 48 h
The source made the active and inactive calls. No stated cut-off is given here; in the data, active = GI50 up to about 1.1 µM and inactive = higher.
Possible outcomes: yes (1) (active), no (0) (inactive)

molecule	system	answerLabel
CN1CCN(c2c(Cl)cc(Cl)c3[nH]c4ccccc4c(=O)c23)CC1	MDA-MB-435	no (0)
CCC(=O)OC1CCn2c1nc1c2C(=O)C(C)=C(N2CC2)C1=O (centres undefined)	MDA-MB-435	yes (1)
Brc1ccc2[nH]cc(-c3csc(-c4c[nH]c5ccccc45)n3)c2c1	MDA-MB-435	no (0)
COC(c1ccc(C(C)(C)C)cc1)(c1ccc(C(C)(C)C)cc1)c1ccc(C(C)(C)C)cc1	MDA-MB-435	no (0)
CC(C)[S+]1C2=C(CC(C)(C)CC2=O)[N-]c2ccccc21 (centres undefined)	MDA-MB-435	no (0)
CC(=O)NC1C(OCC(=O)NC(C)C(=O)NC(CCC(=O)NCCCCCNc2ccc([N+](=O)[O-])c3[nH]c4ccccc4c(=O)c23)C(N)=O)C(O)C(CO)OC1(C)OCc1ccccc1 (centres undefined)	MDA-MB-435	no (0)
O=c1oc2ccccc2cc1-c1nc2ccc([N+](=O)[O-])cc2o1	MDA-MB-435	no (0)
COc1nc2c(c(=O)n1C)N[C@H]1[C@H](OC(C)=O)[C@@H](OC(C)=O)CO[C@H]1N2	MDA-MB-435	no (0)
COC(=O)C1(C)CCC(c2ccc(C)cc2)=C(CC(=O)O)C1 (centres undefined)	MDA-MB-435	no (0)
